Tested on: NOMO1
Experiment: cell viability relative to DMSO control; higher = less cytotoxic
Conditions: RPMI 5 mM glucose + 10% FBS; 48 h; 0.000781 µM
measured attribute: cell viability (%)
Provide the reading as a plain figure in %.

Value lookup for cell viability; key = `COc1cc2c(Nc3ccc(Br)cc3F)ncnc2cc1OCC1CCN(C)CC1` 79

Consider the compound shown here: `CCN(C(=O)C/1=C(O)/C2=C(C=CC=C2Cl)N(C)C1=O)C3=CC=CC=C3` What is its recorded cell viability? 80.5

Name the reported cell viability value associated with the compound `CN(C)c1nc(Cc2ccc(NC(=O)c3ccc4ccccc4c3)cc2)nc(Cl)c1CC(=O)O` 115

Quick one: cell viability for `C=CCc1cccc(/C=N/NC(=O)CN2CCN(Cc3ccccc3)CC2)c1O` ? 120

Which cell viability is listed for `NCCCCNCCCN` ? 108

What measured cell viability goes with `O=C1Nc2ccc(I)cc2/C1=C/c1cc(Br)c(O)c(Br)c1` ? 86.6

Fill in the blank: the reported cell viability of OC(=O)C(CC/1=C/C(=O)NC2=CC=CC=C12)NC(=O)C3=CC=C(Cl)C=C3 (stereo unspecified) is ____. 121

Entry `COCCOc1nc(-c2ccc(Cl)c(Cl)c2)n(-c2ccc(NC(=O)CCl)cc2)n1` has what cell viability? 78.3

Looking for the measured cell viability of `CNCc1ccc(-c2[nH]c3cc(F)cc4c3c2CCNC4=O)cc1` , can you help? 111

I have this compound here, `CC[C@]12\C=C/CN3CC[C@]4([C@@H](N(C)C5=CC(=C(C=C45)[C@]6(C[C@H]7C[C@H](CN(C7)CC8=C6[NH]C9=C8C=CC=C9)C(C)(F)F)C(=O)OC)OC)[C@](O)([C@@H]1OC(C)=O)C(=O)OC)[C@H]23` , and I need its recorded cell viability. 95

What measured cell viability goes with `CCC(=C/[C@H](C)C/C=C/C(C)=C/[C@@H](C)C(=O)[C@@H](C)[C@H](O)[C@@H](C)C/C(C)=C/C(=O)O)/C=C/[C@@H]1OC(=O)C=C[C@@H]1C` ? 104

Fill in the blank: the reported cell viability of `CC(C)c1cnn2c(NCc3ccccc3)cc(NCCCCCCN)nc12` is ____. 115

So what's the measured cell viability for this one? `N[S+](=O)([O-])c1cccc2c1C(=O)c1cccc(O)c1C2=O` 110

Consider the compound `CC[C@@]1(O)C(=O)OCC/2=C1/C=C3\N(CC4=CC5=CC(=CC=C5N=C34)O)C2=O` and give its measured cell viability. 116

// query cell viability value for entry CC1=C(CC(=O)O)c2cc(F)ccc2/C1=C\c1ccc([S+](C)[O-])cc1 (stereo unspecified) 125

Reported cell viability, compound COc1ccc2[nH]c([S+]([O-])Cc3ncc(C)c(OC)c3C)nc2c1 (stereo unspecified) : ____ 74.9

----------
Tested on: P12-Ichikawa
Assay: AUC of viability dose-response curve (% viability x log10 dose units); higher = less sensitive
Conditions: RPMI 5 mM glucose + 10% dialyzed FBS; 48 h
Assign AUC of viability dose-response curve to each entry below.
Quick one: just the number, no unit, thanks!

Short answer please: AUC of viability dose-response curve, P12-Ichikawa, entry `COC[C@H](c1ccc(C(F)(F)F)cc1)N1CCN(C2(C)CCN(C(=O)c3c(C)ncnc3C)CC2)C[C@H]1C.O=C(O)/C=C\C(=O)O` 467

What measured AUC of viability dose-response curve is associated with `CC1(C)CNc2cc(NC(=O)c3cccnc3NCc3ccncc3)ccc21` on P12-Ichikawa? 455

Recall the recorded AUC of viability dose-response curve for `COc1ccc(Nc2nccc(NCCO)n2)cc1` with P12-Ichikawa and state it. 377

Test system P12-Ichikawa; read-out AUC of viability dose-response curve; what value for `Nc1nc(N)c2nc(-c3cccc(O)c3)c(-c3cccc(O)c3)nc2n1` ? 454

Request body: readout AUC of viability dose-response curve, system P12-Ichikawa, query `C[S+](=O)([O-])c1ccc(C(=O)Nc2ccc(Cl)c(-c3ccccn3)c2)c(Cl)c1` . Return the value. 462

----------
Test system: P12-Ichikawa
Experiment: cell viability relative to DMSO control; higher = less cytotoxic
Details: HPLM + 10% dialyzed FBS; 48 h; 0.569 µM
measured attribute: cell viability (%)
Write it as a number; the unit % goes unstated.

Any idea what cell viability was measured for `COC1=CC=CC(=C1N)\C2=C\C(=O)C3=C(O2)C=CC=C3` ? 134

Param item = `N[S+](=O)([O-])c1cccc2c1C(=O)c1cccc(O)c1C2=O` ; retrieve measured cell viability. 114

What does the data say about its cell viability? Entry: `NC(=O)c1cccc2nc(-c3ccc([C@H]4CCCN4)cc3F)[nH]c12` 120

Record request: cell viability value, item `CNCc1ccc(-c2[nH]c3cc(F)cc4c3c2CCNC4=O)cc1` 130

Field request: cell viability | item: `CNC[C@H](O)c1cccc(O)c1` 108

----------
For each entry below, report its cell viability value.
Tested on: NOMO1
Experiment: cell viability relative to DMSO control; higher = less cytotoxic
Settings: RPMI 5 mM glucose + 10% dialyzed FBS; 48 h; 15.4 µM
# output: bare number, implied unit %

Fill in: cell viability of `Cn1c(=O)n(-c2ccc(C(C)(C)C#N)cc2)c2c3cc(-c4cnc5ccccc5c4)ccc3ncc21` is ___ 22.6

Fill blank: measured cell viability of the compound `O=C(Oc1ccc([N+](=O)[O-])cc1)N1CCC(C(O)(c2ccc3c(c2)OCO3)c2ccc3c(c2)OCO3)CC1` is ____. 74.6

What value of measured cell viability is listed for `CN(C)CCOc1ccc(-c2nc(-c3ccncc3)c(-c3ccc4c(c3)CC/C4=N\O)[nH]2)cc1` ? 85.4

What does the data say about its cell viability? Entry: `CC(C)c1cc(C(=O)N2Cc3ccc(CN4CCN(C)CC4)cc3C2)c(O)cc1O` 20.1

I am curious: what cell viability value has been reported for `COc1ccc2c(c1)c(CC(=O)OCC(=O)O)c(C)n2C(=O)c1ccc(Cl)cc1` ? 123

May I ask what cell viability has been recorded for `CO/C1=C/C(C)=C\[C@@H](C)[C@@H](O)[C@@H](C)C/C(C)=C\C=C/[C@H](OC)[C@@H]([C@@H](C)[C@@H](O)[C@H](C)[C@@]2(O)C[C@@H](O)[C@H](C)[C@@H](C(C)C)O2)OC1=O` ? 6.37

What measured cell viability goes with COc1ccc2[nH]c([S+]([O-])Cc3ncc(C)c(OC)c3C)nc2c1 (stereo not given) ? 91.1

# lookup: cell viability of `CC1(C)CNc2cc(NC(=O)c3cccnc3NCc3ccncc3)ccc21` 105

Can you look up the measured cell viability of `Cc1[nH]c(/C=C2\C(=O)Nc3ccccc32)c(C)c1CCC(=O)O` for me? 101

What value of cell viability has been recorded for this entry: `NC(=O)c1cccc2nc(-c3ccc([C@H]4CCCN4)cc3F)[nH]c12` 109

What does the record list as cell viability for `CC[C@]12\C=C/CN3CC[C@]4([C@@H](N(C)C5=CC(=C(C=C45)[C@]6(C[C@H]7C[C@H](CN(C7)CC8=C6[NH]C9=C8C=CC=C9)C(C)(F)F)C(=O)OC)OC)[C@](O)([C@@H]1OC(C)=O)C(=O)OC)[C@H]23` ? 26.8

Suppose we examine the compound `C[C@]12CC[C@H]3[C@@H](C\C=C/4C[C@@H](O)CC[C@]34C)[C@@H]1CCC2=O` ; what cell viability value has been reported? 109

Consider the compound shown here: `CCC(=O)N[C@H]1CC[C@H](C(=O)N(C)c2ccc(-c3nc4ccccc4o3)cc2)C1` What is its recorded cell viability? 81

Can you look up the measured cell viability of `COc1ccc([C@@H]2CC(=O)c3c(O)cc(O[C@@H]4O[C@H](CO[C@@H]5O[C@@H](C)[C@H](O)[C@@H](O)[C@H]5O)[C@@H](O)[C@H](O)[C@H]4O)cc3O2)cc1O` for me? 114

Looking for the measured cell viability of `N[S+](=O)([O-])c1cccc2c1C(=O)c1cccc(O)c1C2=O` , can you help? 82.9

----------
Tested on: SEM cells
Test: AUC of viability dose-response curve (% viability x log10 dose units); higher = less sensitive
Conditions: RPMI 5 mM glucose + 10% FBS; 48 h
So basically: is AUC of viability dose-response curve under 400? Then t. Not under? Then f.

Hello, I'm reviewing records and need to know if AUC of viability dose-response curve of `C[C@]12CC[C@H]3[C@@H](CCC/4=C/C(=O)CC[C@]34C)[C@@H]1CC[C@@H]2O` is below 400. Could you check? f

Hi there! Is AUC of viability dose-response curve for `Nc1nc(N)c2nc(-c3cccc(O)c3)c(-c3cccc(O)c3)nc2n1` below 400, do you know? f

Record `CC(C)n1cnc2c(NCCCCCCNC(=O)OC(C)(C)C)nc(NCCO)nc21` : is its AUC of viability dose-response curve strictly below 400? f

Dear colleague, could you confirm whether AUC of viability dose-response curve of `O=C(c1ccc(F)c(F)c1Nc1ccc(I)cc1F)N1CC(O)([C@@H]2CCCCN2)C1` falls below 400? Thanks. f

Consider `N[S+](=O)([O-])NCCNc1nonc1/C(=N/O)Nc1ccc(F)c(Br)c1` . Does its AUC of viability dose-response curve lie strictly below 400? t

Please determine if `CCN(C(=O)C/1=C(O)/C2=C(C=CC=C2Cl)N(C)C1=O)C3=CC=CC=C3` is below 400 in terms of AUC of viability dose-response curve. t

Does the reported AUC of viability dose-response curve of `O=C(O)CCn1c2c(c3ccccc31)C[C@H](N[S+](=O)([O-])c1ccc(F)cc1)CC2` stay below 400? f

Does `CN(C)CC[C@H](c1ccc(Cl)cc1)c1ccccn1` have AUC of viability dose-response curve strictly under 400? f

Strictly below 400 in AUC of viability dose-response curve? CC(O)(C#Cc1ccc2c(c1)N(c1nc(N)ncc1Cl)CC2)c1nccs1 (centres undefined) f

I wonder whether `CC(C)c1ccc(Cn2ccc3c4c(N)nc(NC5CC5)nc4ccc32)cc1` has AUC of viability dose-response curve below 400. Can you tell? t

Find out if reported AUC of viability dose-response curve for `CC(=O)Nc1ccc(O)cc1` is less than 400 f

Please determine if `COc1cc2nc(-c3cc(F)ccc3O)nc(N[C@@H]3CNC[C@H]3C(C)(C)O)c2cc1OC` is below 400 in terms of AUC of viability dose-response curve. t

Is it true that AUC of viability dose-response curve reported for `CN(C)c1nc(Cc2ccc(NC(=O)c3ccc4ccccc4c3)cc2)nc(Cl)c1CC(=O)O` is less than 400? f

Just wondering, is AUC of viability dose-response curve of CN1c2ccccc2C(=O)N2CCc3c([nH]c4ccccc34)C21 (centres undefined) below 400? f

Field: below-cutoff. Rule: recorded AUC of viability dose-response curve strictly less than 400. Subject: `CC(C)N(CC[C@H](c1ccccc1)c1cc(CO)ccc1O)C(C)C` f

Hello, is AUC of viability dose-response curve of the following compound strictly smaller than 400? `Cn1cc(/C=C2\C(=O)Nc3cccnc32)c2ccccc21` f

I wonder whether `C[C@]12CC[C@H]3[C@@H](C\C=C/4C[C@@H](O)CC[C@]34C)[C@@H]1CCC2=O` has AUC of viability dose-response curve below 400. Can you tell? f

Just wondering, is AUC of viability dose-response curve of `CCN(CC)CCCCNc1ncc2c(n1)N(C)C(=O)N(c1c(Cl)c(OC)cc(OC)c1Cl)C2` below 400? f

AUC of viability dose-response curve under 400? Item: `N[S+](=O)([O-])c1cccc2c1C(=O)c1cccc(O)c1C2=O` t

Given the entry CC1=C(CC(=O)O)c2cc(F)ccc2/C1=C\c1ccc([S+](C)[O-])cc1 (centres undefined) , would its reported AUC of viability dose-response curve be below 400? f

Check if AUC of viability dose-response curve falls below 400 for `Nc1cc(C(F)(F)F)c(-c2cc(N3CCOCC3)nc(N3CCOCC3)n2)cn1` . t

is_below(AUC of viability dose-response curve, 400) for `CC(/C=C/C(=O)NO)=C\[C@@H](C)C(=O)c1ccc(N(C)C)cc1` ? t

Find out if reported AUC of viability dose-response curve for `O=C(CCN1CCN(C(=O)OCc2cc(Cl)cc(Cl)c2)CC1)c1ccc2[nH]c(=O)oc2c1` is less than 400 f
